These data points were gathered from PubChem BioAssay (NCI).

# Test system: U251 CNS
# Measurement Notes: NCI tumour cell line growth inhibition, 48 h
Endpoint Name: TGI

Cc1nc2ccc(S(=O)(=O)Nc3ccc(Cl)cc3)cc2c(=O)n1NC(=O)CNc1ccc(Cl)cc1: > 100 µM
O=C(CNc1nncs1)NO: > 100 µM
N#CCC(=O)Nc1cccc(C(F)(F)F)c1: > 100 µM
Cc1ccc(N=Nc2c(C)nn(C(=O)CC(=O)Nc3ccccc3)c2C)cc1C: > 100 µM
Cc1nc2c(nc1C)C(=O)c1cc(O)ccc1C2=O: > 100 µM
O=C(O)CSc1n[nH]c(-c2ccc(O)cc2)n1: > 100 µM
Cc1ccc2[nH]cc(-c3nc(-c4c[nH]c5ncccc45)cs3)c2c1: > 100 µM
Nn1c(-c2ccccc2)nc2ccc(Br)cc2c1=O: > 100 µM
Cc1cn(C2CC(n3cc(Cn4cc(F)c(=O)[nH]c4=O)nn3)C(CO)O2)c(=O)[nH]c1=O (configuration not stated): > 100 µM
CC1(C)OC2OC(COC(=O)C=[N+]=[N-])C3OC(C)(C)OC3C2O1 (configuration not stated): > 100 µM
N#CCC1COc2ccccc2O1 (configuration not stated): > 10 µM
O=C1NCc2ccc3c(-c4cccc(Cl)c4)c[nH]c3c21: > 50 µM

###

# Test system: UO-31 renal
# Measurement Notes: NCI tumour cell line growth inhibition, 48 h
Quick list: TGI per entry.
Endpoint Name: TGI

CNC(P(=O)([O-])[O-])P(=O)([O-])[O-].N.N.[Pt+2]: > 100 µM
COc1cc2c(cc1OC)C(=O)/C(=C/c1cccc(OCC(=O)c3ccccc3)c1)C2: > 100 µM
Cc1c2c(nn1-c1ccc(S(=O)(=O)NC(=S)Nc3ccccc3)cc1)-c1ccccc1CC2: > 50 µM
O=C1CC(O)C=C1Nc1ccc(Cl)cc1 (stereo unspecified): > 100 µM
CCOC(=O)/C(O)=C1\C(=O)N(C)C(=O)C1c1ccc(OC)c(OC)c1 (stereo unspecified): > 100 µM
COc1ccc2c3c1OC1CC(O)C=CC31CCN(C)C2 (stereo unspecified): > 150 µM

###

# Tested on: IGROV1 ovarian
# Measurement Notes: NCI tumour cell line growth inhibition, 48 h
Quick list: GI50 per entry.
Endpoint Name: GI50

COc1cc(C2CC(c3ccc(C)cc3)=NN2C=O)ccc1Oc1ccnc2cc(Cl)ccc12 (centres undefined): 24.8 µM
Cc1cc(-c2ncc(CC(=O)Nc3ccc(-c4cnccn4)cn3)cc2C)ccn1: 30.5 µM
COc1ccc2cc(C(=O)/C=C/c3cc(OC)c(OC)c(OC)c3)ccc2c1: 5.49 µM
O=C(CN1CCN(c2ncccn2)CC1)Nc1ccc(Cl)cc1C(=O)c1ccccc1Cl: 93.2 µM

###

# Test system: OVCAR-4 ovarian
# Measurement Notes: NCI tumour cell line growth inhibition, 48 h; in the data active = GI50 below about 0.43 µM; inactive = the rest
Classes used: t = active, f = inactive

COc1cc(/C(C#N)=C/c2ccc3c(c2OC)OCO3)cc2c1OCO2: f
COc1ccc(-c2nn3ncccc3c2-c2ccnc(Nc3ccc(Cl)c(C(F)(F)F)c3)n2)cc1: f
COc1ccc2nc(N/N=C(\C)c3ccccn3)cc(C)c2c1: t
COc1nc(N(C)O)nc(N(C)O)n1: f
CCOc1cc2ncc(C#N)c(Nc3ccc(OCc4cccc(F)c4)c(Cl)c3)c2cc1NC(=O)CC1CCSS1 (stereo unspecified): f
O=[N+]([O-])C1C(c2ccccc2)C12c1ccccc1-c1ccccc12 (stereo unspecified): f
